- testTarget: furin, P09958;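 note: purified furin at 1:10 enzyme:substrate in 50 mM HEPES pH 7.5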
- Sequence (P09958 whole entry): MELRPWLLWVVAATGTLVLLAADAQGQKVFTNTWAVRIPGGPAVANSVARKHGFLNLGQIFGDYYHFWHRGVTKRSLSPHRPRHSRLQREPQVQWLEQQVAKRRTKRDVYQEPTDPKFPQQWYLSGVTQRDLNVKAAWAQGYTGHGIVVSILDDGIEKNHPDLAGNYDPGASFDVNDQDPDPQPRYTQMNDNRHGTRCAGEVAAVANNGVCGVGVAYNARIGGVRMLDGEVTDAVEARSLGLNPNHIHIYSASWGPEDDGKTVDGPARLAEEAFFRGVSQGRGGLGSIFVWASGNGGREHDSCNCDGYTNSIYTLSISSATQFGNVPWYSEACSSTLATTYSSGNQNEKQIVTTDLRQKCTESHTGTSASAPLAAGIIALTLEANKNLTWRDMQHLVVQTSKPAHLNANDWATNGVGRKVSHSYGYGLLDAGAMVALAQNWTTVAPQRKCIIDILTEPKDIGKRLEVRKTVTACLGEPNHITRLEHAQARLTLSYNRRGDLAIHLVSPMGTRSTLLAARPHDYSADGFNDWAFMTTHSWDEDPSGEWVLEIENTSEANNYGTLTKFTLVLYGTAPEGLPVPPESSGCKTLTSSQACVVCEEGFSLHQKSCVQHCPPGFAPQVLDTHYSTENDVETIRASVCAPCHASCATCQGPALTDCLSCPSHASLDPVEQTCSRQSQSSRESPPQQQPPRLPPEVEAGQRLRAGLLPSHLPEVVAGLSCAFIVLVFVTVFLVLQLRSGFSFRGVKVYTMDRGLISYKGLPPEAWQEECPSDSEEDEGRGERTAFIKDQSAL
- assayName: furin cleavage Z-score vs untreated control; higher = more cleavage, active = 3.5 or more, inactive = 1 or less, 8 variable residues between constant flanks
- conditionParameters: 15 min
The other results are listed elsewhere or left out. How many sequences the whole screen found active is unknown.
I'd be grateful if you could share measured furin cleavage Z-score for these entries.
Reply: number alone, nothing else.

The recorded furin cleavage Z-score for CAIKGGRHLIAGNASASA [HC853] is -0.368

Entry CAKPARYRRGAGNASASA [FS-813] — recorded furin cleavage Z-score = 12.4

# furin cleavage Z-score of CAVVCHSMSYAGNASASA [HC89] = -0.997

Measured furin cleavage Z-score, CARAKRTTKRAGNASASA [FS-3241] : 10.4

Reported furin cleavage Z-score of CAAGVQEDAAAGNASASA [HC1534] : -0.401

Form: sequence = CARAERRPRRAGNASASA [FS-1059] ; furin cleavage Z-score = 9.79

Short answer for CARAKRRAIRAGNASASA [FS-2637] : furin cleavage Z-score was 11.4

Reported furin cleavage Z-score for CARRHRRPRRAGNASASA [FS-1074] was 6.77

Form: sequence = CAERLRQKRIAGNASASA [FS-1194] ; furin cleavage Z-score = 5.45

Sample CASIARQKRIAGNASASA [FS-562] ; furin cleavage Z-score observed: 2.74

Entry CARAERAARFAGNASASA [FS-185] ; furin cleavage Z-score = 2.79

Recorded furin cleavage Z-score (sequence CARAKRRWAPAGNASASA [FS-2638] ): 1.95

furin cleavage Z-score for CATTPCVGSWAGNASASA [HC63] is 0.786
